Cited source for all entries: ChEMBL document CHEMBL4732146

- TEST METHOD NOTES: Stability of compound in pH 7.4 PBS buffer assessed as parent compound remaining measured after 24 hrs by RP-HPLC analysis
- Assay type: physicochemical
- ASSAY SETUP: read-out: Stabilty
ENDPOINT LABEL: remaining at 24 h

Q: Using the record for "O=C(NCCCOc1no[n+]([O-])c1S(=O)(=O)c1ccccc1)c1ccc2cccc(OCc3ccc(B(O)O)cc3)c2n1" , report its remaining at 24 h.
Ans: > 80%
